- System: SW-620 colon
- method summary: NCI-60 one-dose screen, 48 h (100 = growth as untreated, 0 = no growth, -100 = all killed)
- settings: 10 µM unless noted
This is part of a sample that, as a whole, favours compounds with a hit. Of some 83,000 tested, about 20% had one in any assay.

molecule	tested system	growth [%]
COc1ccc(/C=C/c2n(Cc3ccc4ccccc4c3)c3ccccc3[n+]2Cc2ccc3ccccc3c2)cc1	SW-620 colon	-96.2
CC1(C)CC[C@]2(C(=O)Nc3ccc(F)cc3)CC[C@]3(C)C(=CCC4[C@@]5(C)C[C@@H](O)[C@H](O)[C@@](C)(CO)C5CC[C@]43C)C2C1 (some centres undefined)	SW-620 colon	59.4
COc1ccc(NC(=O)[C@H](CO)NC(=O)OC(C)(C)C)cc1C(=O)Nc1cccc(C2CC(=O)c3c(cc(OC)c(OC)c3OC)O2)c1 (some centres undefined)	SW-620 colon	73.9
Nc1n[nH]c2cccc(C#Cc3cccc(NC(=O)c4cccc(Cl)c4)c3)c12	SW-620 colon	42.1
